Measured self-splicing fitness (ln), listed per entry.
- TEST NAME: self-splicing fitness, log relative to wild type (ln ratio); higher = more splicing; Tetrahymena group I intron in knt gene, E. coli kanamycin selection, DiMSum; sequences stand for … in CUCUCU…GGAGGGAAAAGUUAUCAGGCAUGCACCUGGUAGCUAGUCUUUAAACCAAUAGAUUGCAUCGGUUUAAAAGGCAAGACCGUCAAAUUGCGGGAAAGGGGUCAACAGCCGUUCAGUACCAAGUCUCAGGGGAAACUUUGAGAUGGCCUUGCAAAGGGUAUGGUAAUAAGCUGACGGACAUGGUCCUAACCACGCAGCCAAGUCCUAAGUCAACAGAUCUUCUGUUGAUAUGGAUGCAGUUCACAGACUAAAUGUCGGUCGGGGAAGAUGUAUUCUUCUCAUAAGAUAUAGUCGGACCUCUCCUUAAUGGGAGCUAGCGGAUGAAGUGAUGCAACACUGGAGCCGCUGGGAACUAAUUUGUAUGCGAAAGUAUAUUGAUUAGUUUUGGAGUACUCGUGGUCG;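 further: selection with 25 µg/mL kanamycin versus none on LB agar overnight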
- EXPERIMENTAL CONTEXT: 37 °C
Respond numerically, and do not add a unit to the figure.

// below: answered sequences
[[record]]
primary_sequence = "UCCCAGCAAUAUUACGUGCG"
endpoint_value = -2.93

[[record]]
primary_sequence = "UAAUAGCAAUAUUACGCUGU"
endpoint_value = -0.659

[[record]]
primary_sequence = "AGCAAGCAAUAUUACGACAG"
endpoint_value = -1.45


Complete the entry with self-splicing fitness (ln) for `GGGAAGCAAUAUUACGGCUG`
-0.54

###

- TEST NAME: self-splicing fitness, log relative to wild type (ln ratio); higher = more splicing; Tetrahymena group I intron in knt gene, E. coli kanamycin selection, DiMSum; sequences stand for … in CUCUCU…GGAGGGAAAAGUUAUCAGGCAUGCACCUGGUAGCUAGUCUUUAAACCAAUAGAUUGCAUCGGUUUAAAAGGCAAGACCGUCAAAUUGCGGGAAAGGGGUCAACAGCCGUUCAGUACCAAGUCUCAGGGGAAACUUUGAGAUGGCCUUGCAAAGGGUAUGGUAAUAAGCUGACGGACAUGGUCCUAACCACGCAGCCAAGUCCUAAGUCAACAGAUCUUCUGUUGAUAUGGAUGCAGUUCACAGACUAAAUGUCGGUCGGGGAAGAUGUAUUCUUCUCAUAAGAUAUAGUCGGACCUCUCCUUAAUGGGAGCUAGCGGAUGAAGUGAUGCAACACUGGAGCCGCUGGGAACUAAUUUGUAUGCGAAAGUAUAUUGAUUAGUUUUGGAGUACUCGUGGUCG
- EXPERIMENTAL CONTEXT: 37 °C
MEASURED PARAMETER: self-splicing fitness (ln)
Respond numerically, and do not add a unit to the figure.

// below: answered sequences
[[record]]
primary_sequence = "GGGUAGCAAUAUUACGUUUU"
endpoint_value = -0.826

[[record]]
primary_sequence = "AAAUAGCAAUAUUACGAAAU"
endpoint_value = -1.2


Complete the entry with self-splicing fitness (ln) for `CCUCAGCAAUAUUACGGUAC`
-2.26

Complete the entry with self-splicing fitness (ln) for `ACACAGCAAUAUUACGCUAA`
-1.19

Complete the entry with self-splicing fitness (ln) for `CCAUAGCAAUAUUACGGGGC`
-2.95

Complete the entry with self-splicing fitness (ln) for `CACGAGCAAUAUUACGACCG`
0.125

Complete the entry with self-splicing fitness (ln) for `GUAGAGCAAUAUUACGUAUG`
-3.78

Complete the entry with self-splicing fitness (ln) for `UCCUAGCAAUAUUACGUUUU`
-2.69

Complete the entry with self-splicing fitness (ln) for `UAGCAGCAAUAUUACGCUCU`
-1.04

Complete the entry with self-splicing fitness (ln) for `GACAAGCAAUAUUACGUCAC`
-2.75

Complete the entry with self-splicing fitness (ln) for `UGAUAGCAAUAUUACGCCUG`
0.502
